This collection of values is drawn from patent US20050239806A1.

measured-target: EGFR (L747-T751del, Sins) (Homo sapiens, UniProt P00533, DEL747-750/T751S)
Sequence (P00533 with tags, fused parts or gaps DEL747-750/T751S limits assumed): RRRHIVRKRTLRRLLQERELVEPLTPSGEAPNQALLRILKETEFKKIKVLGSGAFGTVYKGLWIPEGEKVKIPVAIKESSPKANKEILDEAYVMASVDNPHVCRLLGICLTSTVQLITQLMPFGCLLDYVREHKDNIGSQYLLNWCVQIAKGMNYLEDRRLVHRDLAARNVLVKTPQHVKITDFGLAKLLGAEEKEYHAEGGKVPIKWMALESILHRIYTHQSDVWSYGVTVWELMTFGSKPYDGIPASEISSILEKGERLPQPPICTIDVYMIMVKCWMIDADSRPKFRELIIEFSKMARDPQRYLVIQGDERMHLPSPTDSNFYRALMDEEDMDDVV
measurement-protocol: Binding of mutant-EGFR (phage-displayed kinase competition binding)
pKd: −log10 of the molar value.
Overview of reported pKd across a group of compounds:

Field: example entries. Status: answers known.
                    structure_smiles_string  endpoint_result
0  Oc1ccc(-c2cc3c(Oc4cccc(Br)c4)ncnc3[nH]2)cc1           > 7.00
1     Clc1ccc(Sc2ncnc3c2[nH]c2ccccc23)cc1Cl           > 7.00

Okay, now this compound:
Lookup: Query (compound): Oc1ccc(-c2cc3c(Sc4ccccc4)ncnc3[nH]2)cc1 ; field requested: pKd
Found: > 7.00
